# Assay remarks: yeast display, Sf9 membrane polyspecificity reagent, FACS + sequencing; frameworks hold sequencing errors

{"Biosequence": "QVQLVESGGGLVQAGGSLRLSCAASGLIFRPYTMGWYRQAPGKERELVATISGSGASTNYADSVKGRFTISRDNAKNTVYLQMNSLKPEDTAVYYCKGRSYSRMYYWGQGTQVTVSS", "polyreactivity (PSR sort gate)": "high polyreactivity"}
{"Biosequence": "QVQLVESGGGLVQAGGSLRLSCAASGITVALNAMGWYRQAPGKERELVAAISWSGDSTYYADSVKGRFTISRDNAKNTVYLQMNSLKPEDTAVYYCNTYPRRFFYSQRYDYWGQGTQVTVSS", "polyreactivity (PSR sort gate)": "low polyreactivity"}
{"Biosequence": "PLQLVESGGGLGQAGGSLRLSCAASGSTFGHNAMGWYRPAPGKERELVAAISISGGRTYYADSVKGRFTISRDNAKNTVYLQMISRKPEDTAVYYCAAEVWYVGDNYDYWGQGTQVTLSS", "polyreactivity (PSR sort gate)": "high polyreactivity"}
{"Biosequence": "HVQLVESGGGLVQAGGSLRLSCAASGYTFVPYAMGWYRQAPGKERELVAAISSSGGDTYYADSVKGRFTISRDNAKNTVYLQMNSLKPEDTAVYYCNTGVYVWQYWYYGFDYWGQGTQVTVSS", "polyreactivity (PSR sort gate)": "low polyreactivity"}
{"Biosequence": "QVQLVESGGGLVQAGGSLRLSCAASGYTFGVNAMGWYRQAPGKERELVAAISRSGGRTYYADSVKGRFTISRDNAKNTVYLQMTSLKPEDTAVYYCAKDRSGSYYNFPEYDYWGQGTQVTVSS", "polyreactivity (PSR sort gate)": "high polyreactivity"}
